tested on: TK-10 renal; test: NCI tumour cell line growth inhibition, 48 h; in the data active means GI50 below about 0.43 µM; inactive means the rest
Assign a class; possible classes are active, inactive

What classification did "O=C(CCl)c1ccc([N+](=O)[O-])o1" end up with in this test?
inactive

Ok, now "CCOC(=O)Cc1c[nH]c(=S)[nH]c1=O"
inactive

Repeat for the following compound: "COc1ccc(Cn2nc(-c3cc(OC)c(OC)c(OC)c3)c3c2CCc2cnoc2-3)cc1OC"
inactive

Cool, now "CN(C)CCCNC(=O)c1cc(NC(=O)CCNS(=O)(=O)c2ccc3c(c2)C(=O)c2ccccc2C3=O)cn1C"
inactive

What do we get for "CC(=O)[O][Pb]([O]C(C)=O)([c]1ccccc1)[c]1ccccc1" ?
inactive

"COc1ccc2c(c1)CC[C@@H]1[C@@H]2CC[C@]2(C)C(=O)C3(CCCCC3)C[C@@H]12" ?
inactive

Input C=C1C(=O)O[C@@H]2C1CC(=O)C(C)CC/C=C(\C)CCC[C@H](C)[C@H]2OC(C)=O (stereo partly specified)
inactive

# iterate: "O=c1cc(CNc2cc(F)cc(F)c2)c2ccc(I)cc2[nH]1"
inactive

Same thing, different compound: N=C(N)c1nn(C2OC(CO)C(O)C2O)c2nc[nH]c(=O)c12 (stereo unspecified)
active

And the next one, "N#CSc1ncnc2nc[nH]c12" ?
inactive

Same question, COc1ccccc1[N-]C(C1=C([O-])c2ccccc2C1=O)c1ccccc1.COc1ccccc1[N-]C(C1=C([O-])c2ccccc2C1=O)c1ccccc1.[Cu+2] (stereo unspecified) this time
inactive

Now the same for "Fc1ccc(-c2nc3n(c2-c2ccncc2)CCS3)cc1"
inactive

Likewise for "COc1ccc(C(=O)/C=C/c2ccc(Cl)cc2)cc1S(=O)(=O)Nc1c(N)nc(SC)[nH]c1=O" ?
inactive

Next entry: "O=S(=O)(c1ccc(NC(=S)NCc2cccnc2)cc1)N1CCCCC1"
inactive

What would you report for "CCc1c(C)[nH]c(/C=C2\N=C(c3ccc[nH]3)C=C2OC)c1C" ?
active

// query: "COc1ccc(-c2ccc(-c3ccc(C(=N)N)nc3)s2)cc1"
inactive
